target: wild type TEM-1 β-lactamase (Escherichia coli, UniProt P62593); assay: Spectrophotometric nitrocefin hydrolysis inhibition assay, TEM-1; conditions: inhibition values are IC50 unless noted
Sequence (P62593 24-286 limits assumed): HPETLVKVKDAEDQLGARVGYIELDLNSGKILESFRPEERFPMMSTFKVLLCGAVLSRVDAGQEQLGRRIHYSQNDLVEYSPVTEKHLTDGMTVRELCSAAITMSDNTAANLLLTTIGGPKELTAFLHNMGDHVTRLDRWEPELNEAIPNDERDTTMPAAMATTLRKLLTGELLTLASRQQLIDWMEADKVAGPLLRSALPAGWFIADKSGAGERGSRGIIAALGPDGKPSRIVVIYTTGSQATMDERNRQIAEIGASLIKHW
Reported Endpoint: pIC50
Here pIC50 is given on a logarithmic scale as minus log10 of the concentration in mol/L.

**Q:** // map COc1cccc(COc2cc(NS(=O)(=O)/C=C/c3cccc(Cl)c3)ccc2OC)c1 to recorded pIC50 (system: wild type TEM-1 β-lactamase (Escherichia coli, UniProt P62593))
**A:** 6.15

**Q:** Form field - read-out: pIC50; system: wild type TEM-1 β-lactamase (Escherichia coli, UniProt P62593); submitted item: O=S(=O)(/C=C/c1cccc(Cl)c1)Nc1ccc(OCc2cccc(Cl)c2)cc1
**A:** 7.07

**Q:** Reported pIC50 for wild type TEM-1 β-lactamase (Escherichia coli, UniProt P62593), given COc1ccc(NS(=O)(=O)/C=C/c2cccc(Cl)c2)cc1O ?
**A:** 5.61

**Q:** Which pIC50 is reported with wild type TEM-1 β-lactamase (Escherichia coli, UniProt P62593) for this entry: O=S(=O)(/C=C/c1cccc(Cl)c1)Nc1cccc(OCc2cccc(F)c2)c1 ?
**A:** 6.28

**Q:** Look up pIC50 with wild type TEM-1 β-lactamase (Escherichia coli, UniProt P62593) for this molecule: COc1cc(NS(=O)(=O)/C=C/c2cccc(Cl)c2)ccc1OCc1cccc(Cl)c1
**A:** 6.39

###

A collection of molecules and their measured IC50
target: IMP-1 beta-lactamase (Serratia marcescens); test: Spectrophotometric nitrocefin hydrolysis inhibition assay, IMP-1
Sequence (P52699 19-246, looked up): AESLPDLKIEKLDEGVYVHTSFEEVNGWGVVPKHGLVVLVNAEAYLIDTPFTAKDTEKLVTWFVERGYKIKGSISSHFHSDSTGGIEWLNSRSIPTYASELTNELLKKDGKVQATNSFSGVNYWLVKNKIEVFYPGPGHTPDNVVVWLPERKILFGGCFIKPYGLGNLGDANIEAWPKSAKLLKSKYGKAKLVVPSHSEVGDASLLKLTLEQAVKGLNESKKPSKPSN

Worked cases, answers included:
- Molecule: "COc1ccc(NS(=O)(=O)/C=C/c2cccc(Cl)c2)cc1O [ef-rs-09-014]"
  IC50: "4690 nM"
- Molecule: "O=S(=O)(/C=C/c1cccc(Cl)c1)Nc1cccc(OCc2cccc(F)c2)c1 [ef-rs-09-012]"
  IC50: "157 nM"
- Molecule: "COc1ccc(NS(=O)(=O)/C=C/c2cccc(Cl)c2)cc1OCc1cccc(Cl)c1 [ef-rs-04-091]"
  IC50: "347 nM"

Continue with the next molecule.
**Q:** What value of IC50 on IMP-1 beta-lactamase (Serratia marcescens) does COc1cccc(/C=C/S(=O)(=O)Nc2cccc(OCc3cccc(Cl)c3)c2)c1 [ef-rs-05-054] have?
**A:** 734 nM

###

target: AmpC β-lactamase (Escherichia coli, UniProt P00811); assay: Spectrophotometric nitrocefin hydrolysis inhibition assay, AmpC
Sequence (P00811 20-377): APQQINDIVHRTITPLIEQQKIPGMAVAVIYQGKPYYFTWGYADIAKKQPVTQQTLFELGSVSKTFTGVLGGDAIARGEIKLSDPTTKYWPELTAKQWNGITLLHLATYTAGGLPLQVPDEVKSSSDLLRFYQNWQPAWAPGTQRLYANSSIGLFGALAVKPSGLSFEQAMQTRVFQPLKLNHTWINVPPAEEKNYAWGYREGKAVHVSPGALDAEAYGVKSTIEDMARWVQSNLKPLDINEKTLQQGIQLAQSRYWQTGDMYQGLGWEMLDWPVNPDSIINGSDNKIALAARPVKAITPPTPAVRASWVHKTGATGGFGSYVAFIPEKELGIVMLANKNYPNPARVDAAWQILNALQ
Reported Endpoint: IC50 (nM)
Field format: number, assumed nM, no unit text.

**Q:** What IC50 value was documented for this compound, O=S(=O)(/C=C/c1cccc(Cl)c1)Nc1cccc(OCc2cccc(Cl)c2)c1 ?
**A:** 477

**Q:** What value of IC50 has been reported for the following compound? O=S(=O)(/C=C/c1cccc(Cl)c1)Nc1ccc(OCc2cccc(Cl)c2)cc1
**A:** 553

###

Entries and their Ki
target: TEM-1 β-lactamase, Drug Resistant Mutants and AmpC β-lactamase; experiment: Average Ki over TEM-1, drug resistant mutants and AmpC; conditions: mean over TEM-1, TEM-12, TEM-17, TEM-30, TEM-40, AmpC
The figure you give is taken to be in nM; do not add the unit.

- Compound: "O=S(=O)(/C=C/c1cccc(Br)c1)Nc1cccc(-c2nnn(Cc3cccc(Cl)c3)n2)c1"
  Reported Endpoint: "Ki"
  Unit Abbreviation: "nM"
  Recorded Result: 362

// moving on: another record for Ki
**Q:** Look up Ki for this compound: O=S(=O)(/C=C/c1cccc(C(F)(F)F)c1)Nc1cccc(-c2nnn(Cc3cccc(Cl)c3)n2)c1 [ef-rs-05-076]
**A:** 176
